Where do these numbers come from? They come from the kinase profiling compilation of Christmann-Franck et al. (2016).

Target: NEK9 (human)
Experiment: KINOMEscan competition binding
Conditions: compound 10.0 µM
Exercise: for every item that follows, state its recorded kinase still bound, per cent of control.
Numbers only, in %.

Solved entries:
COc1cc(N2CCC(C(N)=O)CC2)ccc1Nc1nc(N)c(Cl)c(Nc2ccccc2S(=O)(=O)C(C)C)n1    100
O=c1[nH]c2ccccc2n1C1CCN(Cc2ccc(-c3nc4cc5[nH]cnc5cc4nc3-c3ccccc3)cc2)CC1    88
CNC(=O)Nc1ccc(-c2nc(N3CC4CCC(C3)O4)c3cnn(C4CCC5(CC4)OCCO5)c3n2)cc1    100
CC1=C(C(=O)Nc2cc3cn[nH]c3cc2F)C(c2ccc(C(F)(F)F)cc2)CC(=O)N1 (stereo not drawn)    89
COc1ccc(N(C(=O)Oc2cc(C(=O)Nc3cccc(C(F)(F)F)c3)ccc2C)c2ccnc(Nc3ccc(N4CCN(C)CC4)cc3)n2)c(OC)c1    100
C=CC(=O)Nc1ccc(C(=O)c2sc(Nc3ccc(N4CCN(C)CC4)cc3OC)nc2N)cc1    100
N#C/C(=C1/Nc2ccccc2S1)c1ccnc(NCCc2cccnc2)n1    90
N#Cc1cc(-c2ccnc(Nc3ccc(-n4cnc(-c5cccnc5)n4)cc3)n2)cc(N2CCOCC2)c1    63

// batch mode: one kinase still bound, per cent of control value per listed entry
1. CCN1CCN(Cc2ccc(NC(=O)c3ccc(C)c(/C=C/c4cnc5[nH]ccc5c4OC)c3)cc2C(F)(F)F)CC1
2. CCCS(=O)(=O)Nc1ccc(F)c(C(=O)c2c[nH]c3ncc(Cl)cc23)c1F
3. CC(=O)c1c(C)c2cnc(Nc3ccc(N4CCNCC4)cn3)nc2n(C2CCCC2)c1=O
4. COc1cc(C)c(Sc2cnc(NC(=O)c3ccc(CNC(C)C(C)C)cc3)s2)cc1C(=O)N1CCN(C(C)=O)CC1 (stereo not drawn)
5. COc1cc2ncnc(Nc3cccc(Cl)c3)c2cc1OC

// result
[8.4, 66, 76, 100, 78]

----------
Target: UniProtKB Q32MK0
Sequence (Q32MK0 whole entry, looked up): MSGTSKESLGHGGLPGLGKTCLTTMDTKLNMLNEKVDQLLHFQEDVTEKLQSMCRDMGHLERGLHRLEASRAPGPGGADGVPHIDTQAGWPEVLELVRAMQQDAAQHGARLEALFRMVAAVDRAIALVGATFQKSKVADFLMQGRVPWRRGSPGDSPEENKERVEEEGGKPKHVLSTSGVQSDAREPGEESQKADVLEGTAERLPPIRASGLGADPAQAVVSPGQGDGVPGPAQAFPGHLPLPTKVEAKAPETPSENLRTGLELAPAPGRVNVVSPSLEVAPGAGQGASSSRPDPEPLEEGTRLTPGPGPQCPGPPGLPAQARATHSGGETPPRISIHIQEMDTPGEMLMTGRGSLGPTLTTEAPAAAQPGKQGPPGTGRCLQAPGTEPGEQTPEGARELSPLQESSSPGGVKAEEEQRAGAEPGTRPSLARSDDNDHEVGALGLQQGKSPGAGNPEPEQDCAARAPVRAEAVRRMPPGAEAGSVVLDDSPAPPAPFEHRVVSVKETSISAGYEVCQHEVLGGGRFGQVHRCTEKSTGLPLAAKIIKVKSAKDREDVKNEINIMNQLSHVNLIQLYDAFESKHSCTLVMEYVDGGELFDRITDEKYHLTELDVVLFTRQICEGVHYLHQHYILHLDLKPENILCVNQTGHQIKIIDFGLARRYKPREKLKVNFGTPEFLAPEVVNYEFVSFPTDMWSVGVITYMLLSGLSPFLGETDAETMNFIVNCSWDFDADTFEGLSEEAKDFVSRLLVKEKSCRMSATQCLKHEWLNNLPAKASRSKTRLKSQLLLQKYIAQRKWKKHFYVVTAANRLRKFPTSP
Assay: KINOMEscan competition binding
Conditions: compound 10.0 µM
Could you please report measured kinase still bound, per cent of control for the items listed next?

Answered examples (2):
CCN(CCO)CCCOc1ccc2c(Nc3cc(CC(=O)Nc4cccc(F)c4)[nH]n3)ncnc2c1    98%
COc1cc(C)c(Sc2cnc(NC(=O)c3ccc(CNC(C)C(C)C)cc3)s2)cc1C(=O)N1CCN(C(C)=O)CC1 (stereo not drawn)    100%

API: the following record is the query input.
// query Record request: kinase still bound, per cent of control value, item COc1ccc(N(C(=O)Oc2cc(C(=O)Nc3cccc(C(F)(F)F)c3)ccc2C)c2ccnc(Nc3ccc(N4CCN(C)CC4)cc3)n2)c(OC)c1
// result 100%

----------
Target: STK10 (human) (UniProt O94804)
Sequence (O94804 whole entry, looked up): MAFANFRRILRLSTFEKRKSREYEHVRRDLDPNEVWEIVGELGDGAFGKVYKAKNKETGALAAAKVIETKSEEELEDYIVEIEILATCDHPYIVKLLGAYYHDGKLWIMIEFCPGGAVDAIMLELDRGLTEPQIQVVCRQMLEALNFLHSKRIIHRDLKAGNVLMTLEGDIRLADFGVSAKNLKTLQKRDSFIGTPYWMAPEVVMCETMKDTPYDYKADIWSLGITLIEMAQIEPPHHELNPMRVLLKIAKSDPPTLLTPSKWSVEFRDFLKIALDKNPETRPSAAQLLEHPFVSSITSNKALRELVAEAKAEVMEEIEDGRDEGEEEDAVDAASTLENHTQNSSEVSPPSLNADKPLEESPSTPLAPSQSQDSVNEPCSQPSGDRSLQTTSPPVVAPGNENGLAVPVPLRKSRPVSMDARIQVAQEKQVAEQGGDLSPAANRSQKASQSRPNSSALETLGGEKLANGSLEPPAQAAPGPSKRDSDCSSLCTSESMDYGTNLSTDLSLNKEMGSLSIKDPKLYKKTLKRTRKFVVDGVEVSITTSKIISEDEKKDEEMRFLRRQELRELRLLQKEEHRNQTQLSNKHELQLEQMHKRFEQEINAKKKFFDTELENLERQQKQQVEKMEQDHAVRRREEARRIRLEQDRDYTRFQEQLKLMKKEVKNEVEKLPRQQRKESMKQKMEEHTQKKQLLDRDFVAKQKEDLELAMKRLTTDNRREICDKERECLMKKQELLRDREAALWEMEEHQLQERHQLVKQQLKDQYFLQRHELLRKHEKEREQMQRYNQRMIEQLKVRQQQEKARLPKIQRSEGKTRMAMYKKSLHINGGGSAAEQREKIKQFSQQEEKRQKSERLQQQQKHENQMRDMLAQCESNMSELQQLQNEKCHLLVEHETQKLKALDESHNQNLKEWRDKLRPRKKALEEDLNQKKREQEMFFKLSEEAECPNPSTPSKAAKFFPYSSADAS
Assay: KINOMEscan competition binding
Details: compound 10.0 µM
REPORTED_PROPERTY: kinase still bound, per cent of control
A complete answer gives the number and then names the unit.

Use these answered entries as a reference point.
CCN(CCO)CCCOc1ccc2c(Nc3cc(CC(=O)Nc4cccc(F)c4)[nH]n3)ncnc2c1    11%
CNC(=O)Nc1ccc(-c2nc(N3CC4CCC(C3)O4)c3cnn(C4CCC5(CC4)OCCO5)c3n2)cc1    99%
COc1cc(C)c(Sc2cnc(NC(=O)c3ccc(CNC(C)C(C)C)cc3)s2)cc1C(=O)N1CCN(C(C)=O)CC1 (stereo not given)    13%
N#Cc1cc(-c2ccnc(Nc3ccc(-n4cnc(-c5cccnc5)n4)cc3)n2)cc(N2CCOCC2)c1    39%

In the following, a different molecule is considered.
// query # value lookup — system STK10 (human) (UniProt O94804), readout kinase still bound, per cent of control, item CCCS(=O)(=O)Nc1ccc(F)c(C(=O)c2c[nH]c3ncc(Cl)cc23)c1F
// result 68%

----------
Please go through the items and note down their kinase still bound, per cent of control.
Target: PI4KB (human)
Experiment: KINOMEscan competition binding
Conditions: compound 10.0 µM
One number for each entry, in %.

Consider the worked cases shown below.
O=c1[nH]c2ccccc2n1C1CCN(Cc2ccc(-c3nc4cc5[nH]cnc5cc4nc3-c3ccccc3)cc2)CC1    60
CCOc1cc(N2CCC(O)CC2)ccc1Nc1ncc2c(n1)N(C)c1ccccc1C(=O)N2C    100
CCCS(=O)(=O)Nc1ccc(F)c(C(=O)c2c[nH]c3ncc(Cl)cc23)c1F    25

// query So what does the record say about kinase still bound, per cent of control for CC1=C(C(=O)Nc2cc3cn[nH]c3cc2F)C(c2ccc(C(F)(F)F)cc2)CC(=O)N1 (centres undefined) ?
// result 100

----------
Answer each item with its documented kinase still bound, per cent of control.
Target: TSSK1B (human) (UniProt Q9BXA7)
Sequence (Q9BXA7 whole entry, looked up): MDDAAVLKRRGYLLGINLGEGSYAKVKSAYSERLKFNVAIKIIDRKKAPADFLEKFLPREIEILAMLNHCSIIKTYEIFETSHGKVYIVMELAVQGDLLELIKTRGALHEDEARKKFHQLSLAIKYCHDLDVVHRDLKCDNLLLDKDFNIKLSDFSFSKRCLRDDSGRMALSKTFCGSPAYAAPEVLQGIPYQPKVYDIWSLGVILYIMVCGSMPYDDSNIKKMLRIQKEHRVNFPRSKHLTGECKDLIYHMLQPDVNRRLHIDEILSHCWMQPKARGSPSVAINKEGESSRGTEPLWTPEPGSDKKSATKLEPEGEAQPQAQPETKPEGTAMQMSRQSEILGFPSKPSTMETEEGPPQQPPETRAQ
Experiment: KINOMEscan competition binding
Conditions: compound 10.0 µM
Answers are plain numbers, in %.

N#C/C(=C1/Nc2ccccc2S1)c1ccnc(NCCc2cccnc2)n1    100
COc1ccc(N(C(=O)Oc2cc(C(=O)Nc3cccc(C(F)(F)F)c3)ccc2C)c2ccnc(Nc3ccc(N4CCN(C)CC4)cc3)n2)c(OC)c1    100
COc1cc(C)c(Sc2cnc(NC(=O)c3ccc(CNC(C)C(C)C)cc3)s2)cc1C(=O)N1CCN(C(C)=O)CC1 (stereo not given)    100
CC1=C(C(=O)Nc2cc3cn[nH]c3cc2F)C(c2ccc(C(F)(F)F)cc2)CC(=O)N1 (stereo not given)    98

// query Would you mind telling me what kinase still bound, per cent of control value was observed for CCOc1cc(N2CCC(O)CC2)ccc1Nc1ncc2c(n1)N(C)c1ccccc1C(=O)N2C ?
// result 100

----------
Molecular target: RIPK2 (human) (UniProt O43353)
Sequence (O43353 whole entry, looked up): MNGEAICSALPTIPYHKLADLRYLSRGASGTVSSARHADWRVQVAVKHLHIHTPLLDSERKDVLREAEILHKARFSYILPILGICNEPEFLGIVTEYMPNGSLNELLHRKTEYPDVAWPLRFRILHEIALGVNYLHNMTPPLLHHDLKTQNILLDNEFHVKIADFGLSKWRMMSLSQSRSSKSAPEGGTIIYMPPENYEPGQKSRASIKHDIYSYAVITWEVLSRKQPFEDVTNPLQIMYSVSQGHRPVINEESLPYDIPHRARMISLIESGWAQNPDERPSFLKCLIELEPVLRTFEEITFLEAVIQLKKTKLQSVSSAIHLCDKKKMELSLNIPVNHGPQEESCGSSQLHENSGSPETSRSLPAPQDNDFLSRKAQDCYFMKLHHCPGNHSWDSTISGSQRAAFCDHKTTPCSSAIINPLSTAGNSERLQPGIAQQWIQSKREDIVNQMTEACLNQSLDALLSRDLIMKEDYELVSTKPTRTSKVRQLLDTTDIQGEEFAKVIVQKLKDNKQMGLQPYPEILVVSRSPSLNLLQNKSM
Experiment: KINOMEscan competition binding
Conditions: compound 10.0 µM
# note: boundary value 70% maps to criterion not met; kinase still bound, per cent of control below it maps to criterion met

CCOc1cc(N2CCC(O)CC2)ccc1Nc1ncc2c(n1)N(C)c1ccccc1C(=O)N2C    criterion not met
O=c1[nH]c2ccccc2n1C1CCN(Cc2ccc(-c3nc4cc5[nH]cnc5cc4nc3-c3ccccc3)cc2)CC1    criterion met
CCc1nc(-c2cccc(C)c2)c(-c2ccnc(NC(=O)c3ccccc3)c2)s1    criterion met
C=CC(=O)Nc1ccc(C(=O)c2sc(Nc3ccc(N4CCN(C)CC4)cc3OC)nc2N)cc1    criterion not met

// query Find out if reported kinase still bound, per cent of control for CCN(CCO)CCCOc1ccc2c(Nc3cc(CC(=O)Nc4cccc(F)c4)[nH]n3)ncnc2c1 is less than 70%
// result criterion met

// query Input COc1cc(N2CCC(C(N)=O)CC2)ccc1Nc1nc(N)c(Cl)c(Nc2ccccc2S(=O)(=O)C(C)C)n1
// result criterion not met

----------
Molecular target: ICK (human)
Assay: KINOMEscan competition binding
Settings: compound 10.0 µM
REPORTED_PROPERTY: kinase still bound, per cent of control
Your answer should be a number followed by the unit of measure.

# count of solved cases: 3
CCCS(=O)(=O)Nc1ccc(F)c(C(=O)c2c[nH]c3ncc(Cl)cc23)c1F    63%
Cc1cn(-c2cc(C(=O)Nc3ccc(C)c(NC(=O)c4ccno4)c3)cc(C(F)(F)F)c2)cn1    100%
COc1cc2ncnc(Nc3cccc(Cl)c3)c2cc1OC    100%

Report kinase still bound, per cent of control for each item below.
1. N#Cc1cc(-c2ccnc(Nc3ccc(-n4cnc(-c5cccnc5)n4)cc3)n2)cc(N2CCOCC2)c1
2. O=c1[nH]c2ccccc2n1C1CCN(Cc2ccc(-c3nc4cc5[nH]cnc5cc4nc3-c3ccccc3)cc2)CC1

// result
1. 2.6%
2. 91%

----------
Target: AKT3 (human)
Assay: KINOMEscan competition binding
Details: compound 10.0 µM
For each entry below, report its kinase still bound, per cent of control value.
Numbers only, in %.

COc1cc(C)c(Sc2cnc(NC(=O)c3ccc(CNC(C)C(C)C)cc3)s2)cc1C(=O)N1CCN(C(C)=O)CC1 (centres undefined)    100
CCCS(=O)(=O)Nc1ccc(F)c(C(=O)c2c[nH]c3ncc(Cl)cc23)c1F    100
CNC(=O)Nc1ccc(-c2nc(N3CC4CCC(C3)O4)c3cnn(C4CCC5(CC4)OCCO5)c3n2)cc1    86

Okay, now this compound:
// query Recorded kinase still bound, per cent of control of C=CC(=O)Nc1ccc(C(=O)c2sc(Nc3ccc(N4CCN(C)CC4)cc3OC)nc2N)cc1 , please.
// result 73

----------
Target: LTK (human)
Assay: KINOMEscan competition binding
Settings: compound 10.0 µM
Hi there, I'd appreciate the recorded kinase still bound, per cent of control for every entry that follows.
Give bare numbers, in %.

For orientation, consider the following solved cases.
CNC(=O)Nc1ccc(-c2nc(N3CC4CCC(C3)O4)c3cnn(C4CCC5(CC4)OCCO5)c3n2)cc1    68
C=CC(=O)Nc1ccc(C(=O)c2sc(Nc3ccc(N4CCN(C)CC4)cc3OC)nc2N)cc1    5.6

Parameters: items (list). Returns: kinase still bound, per cent of control for each item.
1. COc1cc(C)c(Sc2cnc(NC(=O)c3ccc(CNC(C)C(C)C)cc3)s2)cc1C(=O)N1CCN(C(C)=O)CC1 (stereo not given)
2. N#C/C(=C1/Nc2ccccc2S1)c1ccnc(NCCc2cccnc2)n1
3. CCc1nc(-c2cccc(C)c2)c(-c2ccnc(NC(=O)c3ccccc3)c2)s1

// result
1. 34
2. 100
3. 26
